B1: HDV Ribozyme (parent)
chain: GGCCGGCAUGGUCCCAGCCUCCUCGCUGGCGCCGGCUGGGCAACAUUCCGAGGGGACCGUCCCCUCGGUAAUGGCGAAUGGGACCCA

# Variants of: B1
# test_name: self-cleavage, relative activity (ratio to wild type); higher = more cleavage; co-transcriptional
measurement_label: self-cleavage

INSERT INTO assay_data (mutation_id, measurement_label, recorded_measurement) VALUES
  ('G25A U69C', 'self-cleavage', 0.302),
  ('C24G G68U', 'self-cleavage', 0.0191),
  ('U47G U79G', 'self-cleavage', 0.415),
  ('C22G A77G', 'self-cleavage', 0.0504),
  ('A8G C58U', 'self-cleavage', 0.962),
  ('C4G C41A', 'self-cleavage', 0.162),
  ('C22U U47C', 'self-cleavage', 0.424);
